Tested on: RXF 393
test-details: NCI tumour cell line growth inhibition, 48 h
Activity calls are given as the source filed them. Rule as the data show it: active = GI50 up to about 1.1 µM and inactive = higher.
Below, each of the molecules is paired with its reported GI50 value.

Query: Checklist item: GI50 tested on RXF 393, entry COc1cccc(NC(=O)CC(=O)NNCC(=O)Nc2nnc(-c3ccc(N(CCC#N)S(=O)(=O)c4ccccc4)cc3)s2)c1 , value?
Result: 56.4 µM (inactive)

* * *

System: KM12
test-details: NCI tumour cell line growth inhibition, 48 h
The source made the active and inactive calls. Cut-off read from the data, not from the text of the source: active = GI50 up to about 1.1 µM and inactive = higher.
Below, each of the molecules is paired with its reported GI50 value.

Query: Can you share its GI50? I mean this molecule: CCOC(=O)N1CCC(N[C@@H]2c3cc4c(cc3[C@@H](c3cc(OC)c(O)c(OC)c3)[C@H]3C(=O)OC[C@@H]32)OCO4)CC1
Result: 2.86 µM (inactive)

Query: Input CC1=C(C)Cc2c(O)ccc(O)c2C1
Result: 31.3 µM (inactive)

Query: Input CC(=O)Nc1c(C)cc(OCC(=O)O)cc1C
Result: > 100 µM (inactive)

// next entry
Query: Can you share its GI50? I mean this molecule: Oc1ccc2c(c1)-c1c(c3ccccc3n1CCN1CCOCC1)CC2
Result: 20 µM (inactive)

* * *

System: NCI-H522
test-details: NCI tumour cell line growth inhibition, 48 h
Calls of active or inactive are those of the source. No stated cut-off is given here; in the data, active = GI50 up to about 1.1 µM and inactive = higher.
quantity: GI50

A selection of reference data follows.
Query: Can you share its GI50? I mean this compound: COC(=O)[C@@]1(C(C)CC(=O)O)CCCCC1=O (stereo not given in full)
Result: > 100 µM (inactive)

Query: Input COc1cc(/C=C/C(=O)c2sc(-n3nc(-c4ccccc4)cc3-c3ccccc3)nc2C)ccc1O
Result: 14.5 µM (inactive)

Others:
Query: Can you share its GI50? I mean this compound: Nc1nc2c3nc(Nc4ccccc4)sc3nc(=S)n2c2sc(Nc3ccccc3)nc12
Result: 8.34 µM (inactive)

Query: Input O=C(CCc1cc(-c2ccco2)n(-c2ccc([N+](=O)[O-])cc2[N+](=O)[O-])n1)Nc1ccccc1
Result: > 100 µM (inactive)

Query: Input C#CCn1ncc2c(SCc3ccccc3)ncnc21
Result: 73.1 µM (inactive)

* * *

System: SF-268
test-details: NCI tumour cell line growth inhibition, 48 h
Activity calls are given as the source filed them. Cut-off read from the data, not from the text of the source: active = GI50 up to about 1.1 µM and inactive = higher.
quantity: GI50

A selection of reference data follows.
Query: Can you share its GI50? I mean this compound: C=CCSc1ncnc2c1ncn2C1OC(CO)C(O)C1O (stereo unspecified)
Result: 34.7 µM (inactive)

Query: Input OCc1cn(Cc2ccccc2)c2ccccc12
Result: 14 µM (inactive)

Query: Input O=C(COc1ccc(OCC(=O)N2C(=O)CC(=O)N(c3ccccc3)C2=S)cc1)N1C(=O)CC(=O)N(c2ccccc2)C1=S
Result: 43.2 µM (inactive)

Query: Input CCn1c(=O)c2nc(SC)sc2n(-c2ccccc2)c1=S
Result: > 100 µM (inactive)

Query: Input CC1C2(C)OC(=N)C(C#N)(C(c3cccc([N+](=O)[O-])c3)O2)C1(C#N)C#N (stereo unspecified)
Result: 33 µM (inactive)

// next entry
Query: Can you share its GI50? I mean this compound: NNC(=O)c1c(-c2cccnc2)cnc2ccccc12
Result: > 100 µM (inactive)

* * *

System: SK-MEL-28
test-details: NCI tumour cell line growth inhibition, 48 h
Active and inactive are the calls of the source. Cut-off read from the data, not from the text of the source: active = GI50 up to about 1.1 µM and inactive = higher.
Hello, when you answer, please use one of the following outcomes: yes (active), no (inactive)

Some entries whose results are on file:
Query: Field: outcome | Entry: CC1C2(C)OC(=N)C(C#N)(C(c3cccc([N+](=O)[O-])c3)O2)C1(C#N)C#N (configuration not stated)
Result: no

Query: Input COc1ccc(C2=Nn3c(nc4sc(-c5ccccc5)cc4c3=O)SC2)cc1
Result: no

Query: Input CC1=NN(C(=O)c2ccc([N+](=O)[O-])cc2)C(=O)C1/N=N/c1ccccc1C(=O)O (configuration not stated)
Result: no

Query: Input O=c1c2ccccc2[se]n1-c1cccnc1
Result: no

Query: Input O=C1Nc2ccc(S(=O)(=O)O)cc2/C1=N/Nc1ccccc1[N+](=O)[O-]
Result: no

Query: Input O=[N+]([O-])C=C1c2ccccc2-c2ccccc21
Result: no

Others:
Query: Field: outcome | Entry: Cc1cc(-c2ccccc2)nc(Nc2cc3ccccc3[nH]2)n1
Result: no

Query: Input O=c1c2cc(-c3ccccc3)sc2nc2n1N=C(c1ccc(Cl)cc1)CS2
Result: no

Query: Input COc1cccc2c1C1(O)C2CCCC12OCCCO2 (configuration not stated)
Result: no
